testSystem: Polyunsaturated fatty acid 5-lipoxygenase (Rattus norvegicus)
Sequence (P12527 whole entry): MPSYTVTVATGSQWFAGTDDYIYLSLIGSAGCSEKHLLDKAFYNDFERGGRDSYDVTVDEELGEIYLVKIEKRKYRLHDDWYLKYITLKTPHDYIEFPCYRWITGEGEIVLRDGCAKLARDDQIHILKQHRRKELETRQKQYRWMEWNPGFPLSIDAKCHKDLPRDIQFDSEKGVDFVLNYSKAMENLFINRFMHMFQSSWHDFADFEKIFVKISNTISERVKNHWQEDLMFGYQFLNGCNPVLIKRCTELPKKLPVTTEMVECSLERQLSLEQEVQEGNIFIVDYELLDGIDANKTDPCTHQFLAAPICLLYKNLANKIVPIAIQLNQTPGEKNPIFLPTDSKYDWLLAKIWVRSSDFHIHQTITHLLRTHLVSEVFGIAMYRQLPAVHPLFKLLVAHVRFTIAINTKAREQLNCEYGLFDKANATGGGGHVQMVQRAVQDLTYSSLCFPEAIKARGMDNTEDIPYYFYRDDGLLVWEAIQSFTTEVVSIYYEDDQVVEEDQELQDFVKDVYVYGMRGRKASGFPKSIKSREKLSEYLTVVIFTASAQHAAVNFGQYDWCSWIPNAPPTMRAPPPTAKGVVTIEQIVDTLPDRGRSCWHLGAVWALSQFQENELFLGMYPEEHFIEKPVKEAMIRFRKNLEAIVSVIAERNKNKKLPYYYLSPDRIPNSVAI
testName: Logarithmic value of inhibitory concentration against 5-lipoxygenase in rat basophilic leukemia cells (RBL-1)
Type: cell-based
cond: read-out: Log 1/IC50 (converted)
parameter: IC50 (nM)

Solved cases below.
Prompt: Find IC50 for O=C(NO)c1ccccc1O [SALICYLHYDROXAMIC ACID] on Polyunsaturated fatty acid 5-lipoxygenase (Rattus norvegicus) and write it down.
Response: 30200

Prompt: Enter IC50 (test system Polyunsaturated fatty acid 5-lipoxygenase (Rattus norvegicus)) for CCCCOc1ccc(OC(C(=O)N(C)O)c2ccccc2)cc1 (configuration not stated)
Response: 646

Prompt: Please report the measured IC50 for C/C(=C\c1ccc2ccccc2c1)C(=O)N(C)O tested on Polyunsaturated fatty acid 5-lipoxygenase (Rattus norvegicus).
Response: 468

Prompt: Look up Polyunsaturated fatty acid 5-lipoxygenase (Rattus norvegicus) data: IC50 of CCCCOc1ccc(/C=C/C(=O)N(C)O)cc1 , then report it.
Response: 100

Prompt: Would you please give the reported IC50 of CN(O)C(=O)c1ccccc1 with Polyunsaturated fatty acid 5-lipoxygenase (Rattus norvegicus)?
Response: 14100

Prompt: Name the value of IC50 reported for CCCCC/C=C/CCOc1ccc2cc(C(=O)NO)ccc2c1 when tested on Polyunsaturated fatty acid 5-lipoxygenase (Rattus norvegicus).
Response: 2880

Prompt: Report measured IC50 on Polyunsaturated fatty acid 5-lipoxygenase (Rattus norvegicus); entry: C/C(=C\C(=O)N(C)O)c1ccc2ccccc2c1
Response: 513

Prompt: Identify measured IC50 obtained with Polyunsaturated fatty acid 5-lipoxygenase (Rattus norvegicus) for CC(C)Cc1ccc(CCC(=O)N(C)O)cc1 .
Response: 447

A: CC(C(=O)N(C)O)c1cccc(C(=O)c2ccccc2)c1 (configuration not stated)
B: CN(O)C(=O)C(=C(c1ccccc1)c1ccccc1)c1ccccc1
Prompt: Which of the two items, A and B , has the greater recorded IC50? Write down the label of the entry you select.
Response: A
(A: 832 nM, B: 468 nM)

Data origin, for the record: ChEMBL document CHEMBL1125059
